// data source = patent US20030198941A1

# Test system: rhesus MHC class I molecule Mamu-A*01
# ASSAY NOTES: Mamu-A*01 peptide binding assay (inhibition of binding of a radiolabeled probe peptide)
# Design: species or system rhesus macaque
# APPLIED CONDITIONS: relative to the binding affinity of Tat28-35 STPESANL to Mamu-A*01
Documented Relative Binding Average across a set of substances

{"SUBSTANCE": "variant of the Tat STPESANL epitope with arginine at P8 [------R]", "Relative Binding Average": 0.003}
{"SUBSTANCE": "variant of the Tat STPESANL epitope with proline at P1 [P------]", "Relative Binding Average": 0.43}
{"SUBSTANCE": "variant of the Tat STPESANL epitope with leucine at P5 [----L--]", "Relative Binding Average": 0.155}
{"SUBSTANCE": "variant of the Tat STPESANL epitope with proline at P8 [------P]", "Relative Binding Average": 0.009}
{"SUBSTANCE": "variant of the Tat STPESANL epitope with glutamine at P8 [------Q]", "Relative Binding Average": 0.003}

Please look at the following substance next.
Given item variant of the Tat STPESANL epitope with isoleucine at P2 [-I----] , the value recorded as its Relative Binding Average is 0.009

----------
The following substances are listed with their measured pIC50 values.
# TARGET ENTITY: rhesus MHC class I molecule Mamu-A*01
# ASSAY NOTES: Mamu-A*01 peptide binding assay (inhibition of binding of a radiolabeled probe peptide)
# Set-up: species or system rhesus macaque
# APPLIED CONDITIONS: competition against 125-labeled peptide ATPYDINQML; soluble Mamu-A*01
On this scale, pIC50 is minus log10 of a concentration expressed in M (mol/L).

{"SUBSTANCE": "variant of the Tat STPESANL epitope with glutamine at P8 [------Q]", "pIC50": 4.88}

// below: pIC50 requested for another substance
Lookup result for variant of the Tat STPESANL epitope with leucine at P5 [----L--] ; measured pIC50: 6.55

----------
# System: epitope-specific CTL lines
# ASSAY NOTES: Intracellular IFN-γ staining (ICS) with peptide dilutions, in vitro CTL lines
# Format: cell-based, rhesus macaque
# APPLIED CONDITIONS: CTL lines generated in vitro, read-out: ½maximal IFN-γ production (peptide concentration)
ASSAY ENDPOINT: EC50

The measured EC50 associated with "STPESANL" reads < 0.5 nM

----------
# Tested on: rhesus MHC class I molecule Mamu-A*01
# ASSAY NOTES: Mamu-A*01 peptide binding assay (inhibition of binding of a radiolabeled probe peptide)
# Parameters: species or system rhesus macaque
# APPLIED CONDITIONS: (1.0-relative binding average)x100, versus index peptide STPESANL
# Description: Quantitative assays for the binding of peptides to soluble Mamu-A*01 molecules on the basis of the inhibition of binding of a radiolabeled standard probe peptide to detergent-solubilized MHC molecules were performed as previously described (Allen, T. M., et al., J. Immunol. 160:6062-6071, 1998). […] The IC50 of peptides yielding positive inhibition were then determined in subsequent experiments, in which two to six further dilutions were tested, as necessary. […]
This listing pairs substances with measured % Binding reduction.

Below are worked cases with known answers.
{"SUBSTANCE": "variant of the Tat STPESANL epitope with glutamine at P8 [------Q]", "% Binding reduction": ">99%"}
{"SUBSTANCE": "variant of the Tat STPESANL epitope with arginine at P8 [------R]", "% Binding reduction": ">99%"}
{"SUBSTANCE": "variant of the Tat STPESANL epitope with isoleucine at P2 [-I----]", "% Binding reduction": ">99%"}
{"SUBSTANCE": "variant of the Tat STPESANL epitope with leucine at P5 [----L--]", "% Binding reduction": "85%"}
{"SUBSTANCE": "variant of the Tat STPESANL epitope with proline at P1 [P------]", "% Binding reduction": "67%"}

The substance listed as variant of the Tat STPESANL epitope with proline at P8 [------P] shows % Binding reduction equal to >99%

----------
# TARGET ENTITY: rhesus MHC class I molecule Mamu-A*01
# ASSAY NOTES: Mamu-A*01 peptide binding assay (inhibition of binding of a radiolabeled probe peptide)
# Design: species or system rhesus macaque
# APPLIED CONDITIONS: competition against 125-labeled peptide […]; soluble Mamu-A*01
ASSAY ENDPOINT: IC50 (µM)
Kindly answer with a numeric value in µM, unit omitted.

# annotated cases, reported IC50 shown
{"SUBSTANCE": "variant of the Tat STPESANL epitope with arginine at P8 [------R]", "READOUT UNITS": "µM", "IC50": 15.1}
{"SUBSTANCE": "variant of the Tat STPESANL epitope with proline at P1 [P------]", "READOUT UNITS": "µM", "IC50": 0.1}
{"SUBSTANCE": "variant of the Tat STPESANL epitope with proline at P8 [------P]", "READOUT UNITS": "µM", "IC50": 4.57}

Form field IC50, entry variant of the Tat STPESANL epitope with isoleucine at P2 [-I----] : 4.61
